target: human LILRB2 expressed on cells (human, UniProt Q8N423 22-597); assay: cell-based or functional assay
Sequence (Q8N423 other isoform, or with tags, fused parts or gaps limits assumed): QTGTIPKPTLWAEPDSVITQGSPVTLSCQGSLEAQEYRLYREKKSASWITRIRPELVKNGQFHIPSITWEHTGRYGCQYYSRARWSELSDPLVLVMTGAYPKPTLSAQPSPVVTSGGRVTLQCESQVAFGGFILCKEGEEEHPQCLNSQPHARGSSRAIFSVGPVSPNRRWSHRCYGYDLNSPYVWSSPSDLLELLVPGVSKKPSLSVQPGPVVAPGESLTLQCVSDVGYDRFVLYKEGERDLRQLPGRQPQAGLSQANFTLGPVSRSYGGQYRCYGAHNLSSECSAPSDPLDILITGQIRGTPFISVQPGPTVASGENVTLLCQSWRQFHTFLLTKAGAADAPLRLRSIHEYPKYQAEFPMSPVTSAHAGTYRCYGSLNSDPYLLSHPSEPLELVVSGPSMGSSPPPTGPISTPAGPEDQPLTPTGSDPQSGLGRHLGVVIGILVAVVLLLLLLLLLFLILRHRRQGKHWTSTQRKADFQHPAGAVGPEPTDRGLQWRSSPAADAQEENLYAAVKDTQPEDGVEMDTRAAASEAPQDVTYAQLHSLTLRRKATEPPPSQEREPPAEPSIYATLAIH
value.type: IL-10 production (fold over LPS alone)

{"columns": ["binder", "val"],
 "data": [
  ["J-17 (antibody, human IgG4 S228P, kappa, V domains shown, Human IgG4 chimera of murine origin; also called J-17.h) VH: QIQLVQSGPELKKPGETVKISCKASGYTFTTYGLSWVKQTPGKGLKWMGWINTYSGVPTYTDDFKGRFAFSLETSASTAYLQINNLKNEDTATYFCARPYDFDQVGFAYWGQGTLVTVSA VL: SIVMTQTPKFLLVSAGDRVSITCKASQTVSSDVAWYQQKAGQSPKLLIYYASNRYTGVPDRFTGSGYGTDFTFTISTVQAEDLAVYFCQQDYSSPFTFGGGSKLEIKR", 0.89],
  ["J-03 (antibody, human IgG4 S228P, kappa, V domains shown, Human IgG4 chimera of murine origin) VH: QVQLQQSGAELVRPGASVTLSCKASGYKFTDYEMHWVKQTPVHGLEWIGAIDPETNGTAYNKKFKGKAILTADKSSSTAYMELRSLTSEDSAVYYCTRGDYDFSAWFAYWGQGTLVTVSA VL: DIVLTQSPASLAVSLGQRATISCRASESVDNYDISFMHWYQQKPGQPPKLLIYRASNLESGIPARFSGSGSRTDFTLTINPVETDDVATYYCQQSNKDPRTFGGGTKLEIKR", 0.97],
  ["J-04 (antibody, human IgG4 S228P, kappa, V domains shown, Human IgG4 chimera of murine origin) VH: QVQLQQSGAELVRPGASVTLSCKASGYTFADYEIHWVKQTPVHGLEWIGAIDPETGGTAYNQKFKGKAILTADKSSSTAYMELRSLTSEDSAVYYCTRYYDYDDAMDYWGQGTSVTVSS VL: QIVLTQSPAIMSASPGEKVTMTCSASSSVSFMHWYQQKSGTSPKRWIYGTSKLASGVPARFSGSGSGTSYSLTISSMEAEDAATYYCQQWNGNPFTFGSGTKLETKR", 0.95],
  ["J-19 (antibody, human IgG4 S228P, kappa, V domains shown, Human IgG4 chimera from a rat immunization; also called J-19.h) VH: QVTLKESGPGILQPSHTLSLTCSFSGFSLNTYAMGVSWIRQPSGKGLEWLASIWWNGNKYNNPSLKSRLTVSKDTSNNQAFLKVTSVDTADTATYYCAHSRIIRFTDYVMDAWGQGASVTVSS VL: DIQMTQSPASLSTFLGEPVTIECRASEDIYNDLAWYQQKPGKSPQLLIYNANSLHTGVPSRFSGSGSGTQYSLKINSLQSEDVASYFCQQYYDYPLTFGSGTKLEIKR", 0.8]
]}
